Please provide measured log10 of IC90 for the entries that follow.
test system: M. tuberculosis H37Rv growth inhibition, 7H9 media; experiment: M. tuberculosis growth inhibition, HTS (AID 449762); conditions: measured here: IC90 growth inhibition;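 further: bacterial growth assessed after seven days of incubation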
Results filed as inconclusive are left out.
Scale: log10; quantity: IC90; unit before log: µM

// query log10 of IC90 value for entry Cc1cccc(-c2oc3ccc(-c4ccc5c(c4)OCO5)cc3c2C#Cc2cncn2C)c1
0.53

// query log10 of IC90 value for entry O=[N+]([O-])c1ncccc1Oc1nc(-c2cccnc2)nc2ccccc12
0.13

// query log10 of IC90 value for entry O=C(N/N=C/c1ccc([N+](=O)[O-])o1)c1sc2ccccc2c1Cl
0.66

// query log10 of IC90 value for entry Cc1cc2c(ccc3c2no[n+]3[O-])nn1
1.16

// query log10 of IC90 value for entry CNC(C)C#Cc1ccc2oc3cc(C)c(C)cc3c(=O)c2c1 (stereo unspecified)
1.25

// query log10 of IC90 value for entry [O-][n+]1c2ccccc2c2n1CCN1CCOC21c1ccc(Cl)cc1 (stereo unspecified)
1.83

// query log10 of IC90 value for entry CCc1cccc2c(C(=O)CCl)c[nH]c12
0.50

// query log10 of IC90 value for entry Cc1cc(CC(C)C)n(-c2nc3ccccc3c(=O)n2OCC(N)=O)n1
1.10

// query log10 of IC90 value for entry O=C(CN1CCN(C(=O)COc2cccc(F)c2)CC1)Nc1ccc(Cl)c(C(F)(F)F)c1
1.74
